Tested on: Surinam grass
Experiment: Test C pre-/postemergence herbicide test
Assay type: in vivo, Urochloa decumbens
Settings: Postemergence; 250 g ai/ha; scale 0 to 100, 0 no effect, 100 complete control
Recorded Endpoint: Plant response rating, Surinam Grass
Answer with the value's number alone.

CCOC(=O)c1cc(NC(=O)c2cc(C(C)(C)C)nn2CC)ccc1OC :: 40
C=CCNC(=O)c1cccc(NC(=O)c2cc(C(C)(C)C)nn2CC)c1 :: 50
C=Cn1nc(C(C)(C)C)cc1C(=O)Nc1cccc(C(C)=NO)c1 :: 20
CCn1nc(C(C)(C)C)cc1C(=O)Nc1cccc(SC(F)(F)F)c1 :: 30

Turning now to a further record.
Prompt: # input compound: CC(=NO)c1cccc(NC(=O)c2cc(C(C)(C)C)nn2CCF)c1 ; wanted: its Plant response rating, Surinam Grass
Completion: 60

Hello, the source for this data is patent US20060069132A1, in case you need it.
